For each record, write down the corresponding Ki.
Reply numerically in nM, unit not repeated.

Record `CCCCC(=O)N1CCC(NC(=O)c2nn(-c3ccc(Cl)cc3Cl)c(-c3ccc(Cl)cc3)c2C)CC1` has Cannabinoid receptor 1 (Homo sapiens) Ki equal to 14.5

Record `Cc1c(C(=O)NC2CCN(C(=O)C(F)(F)F)CC2)nn(-c2ccc(Cl)cc2Cl)c1-c1ccc(Cl)cc1` has Cannabinoid receptor 1 (Homo sapiens) Ki equal to 1.9

Record `Cc1c(C(=O)NC2CCN(C(=O)c3ccccc3)CC2)nn(-c2ccc(Cl)cc2Cl)c1-c1ccc(Cl)cc1` has Cannabinoid receptor 1 (Homo sapiens) Ki equal to 7.5

---

organism: Homo sapiens; assay: Selectivity ratio of Ki for human CB2 receptor to Ki for human CB1 receptor
measured-endpoint: Ratio Ki
API note: the answer field is a bare number with no unit suffix.

`Cc1c(C(=O)NC2CCN(C(=O)C(F)(F)F)CC2)nn(-c2ccc(Cl)cc2Cl)c1-c1ccc(Cl)cc1` yielded Ratio Ki of 548

`CCCOC(=O)N1CCC(NC(=O)c2nn(-c3ccc(Cl)cc3Cl)c(-c3ccc(Cl)cc3)c2C)CC1` yielded Ratio Ki of 175

`Cc1c(C(=O)NC2CCN(C(=O)C3CCCC3)CC2)nn(-c2ccc(Cl)cc2Cl)c1-c1ccc(Cl)cc1` yielded Ratio Ki of 271

`Cc1c(C(=O)NC2CCN(C(=O)c3ccccc3)CC2)nn(-c2ccc(Cl)cc2Cl)c1-c1ccc(Cl)cc1` yielded Ratio Ki of 230

`Cc1c(C(=O)NC2CCN(S(=O)(=O)CC(C)C)CC2)nn(-c2ccc(Cl)cc2Cl)c1-c1ccc(Cl)cc1` yielded Ratio Ki of 143

`CCS(=O)(=O)N1CCC(NC(=O)c2nn(-c3ccc(Cl)cc3Cl)c(-c3ccc(Cl)cc3)c2C)CC1` yielded Ratio Ki of 99

`Cc1c(C(=O)NC2CCN(C(=O)OC(C)C)CC2)nn(-c2ccc(Cl)cc2Cl)c1-c1ccc(Cl)cc1` yielded Ratio Ki of 301

`Cc1c(C(=O)NC2CCN(C(=O)CC(C)C)CC2)nn(-c2ccc(Cl)cc2Cl)c1-c1ccc(Cl)cc1` yielded Ratio Ki of 63

`Cc1c(C(=O)NC2CCN(S(=O)(=O)CCC(F)(F)F)CC2)nn(-c2ccc(Cl)cc2Cl)c1-c1ccc(Cl)cc1` yielded Ratio Ki of 492

`CCCCC(=O)N1CCC(NC(=O)c2nn(-c3ccc(Cl)cc3Cl)c(-c3ccc(Cl)cc3)c2C)CC1` yielded Ratio Ki of 123
